- Target Entity: human Topo I (Homo sapiens)
- Construct: gene TOP1
- Assay Notes: Human Topoisomerase I relaxation high-throughput plate assay (fluorescent DNA stain)
- Type: biochemical
Observable: pIC50
Recall that pIC50 is obtained by taking minus log10 of the concentration measured in molar.

Item: CCc1c2c(nc3ccc(O)c(CNCCO)c13)-c1cc3c(c(=O)n1C2)COC(=O)[C@]3(O)CC | System: human Topo I (Homo sapiens) | pIC50: 5.76

---

- Target Entity: human Topo I (Homo sapiens, UniProt P11387)
- Construct: gene TOP1
- Sequence (P11387 2-765): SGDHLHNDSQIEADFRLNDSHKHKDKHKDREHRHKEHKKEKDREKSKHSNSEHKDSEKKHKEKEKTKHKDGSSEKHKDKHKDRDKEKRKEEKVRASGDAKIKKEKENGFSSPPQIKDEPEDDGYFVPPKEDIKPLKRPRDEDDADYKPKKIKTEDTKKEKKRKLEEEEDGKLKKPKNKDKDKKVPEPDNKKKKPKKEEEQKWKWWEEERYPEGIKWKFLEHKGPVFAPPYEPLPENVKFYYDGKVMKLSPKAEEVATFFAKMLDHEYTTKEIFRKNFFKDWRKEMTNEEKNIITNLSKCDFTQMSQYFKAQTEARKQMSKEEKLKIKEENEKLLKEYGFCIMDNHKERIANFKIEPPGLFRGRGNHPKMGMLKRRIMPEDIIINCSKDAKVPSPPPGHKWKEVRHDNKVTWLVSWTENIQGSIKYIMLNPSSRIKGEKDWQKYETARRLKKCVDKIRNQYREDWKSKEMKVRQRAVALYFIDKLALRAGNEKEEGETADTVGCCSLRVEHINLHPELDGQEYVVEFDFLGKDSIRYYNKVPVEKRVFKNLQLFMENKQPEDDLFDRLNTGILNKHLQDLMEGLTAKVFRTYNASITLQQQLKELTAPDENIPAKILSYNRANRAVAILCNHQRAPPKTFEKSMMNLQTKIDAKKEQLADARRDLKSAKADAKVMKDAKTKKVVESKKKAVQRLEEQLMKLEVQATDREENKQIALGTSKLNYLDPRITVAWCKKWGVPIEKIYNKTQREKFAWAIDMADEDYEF
- Assay Notes: Human Topoisomerase I relaxation high-throughput plate assay (fluorescent DNA stain)
- Assay type: biochemical
- Condition Description: read-out: SN38
Observable: IC50 (µM)
Give the number; µM is assumed, so skip it.

Item: CCc1c2c(nc3ccc(O)cc13)-c1cc3c(c(=O)n1C2)COC(=O)[C@]3(O)CC [SN38, reference compound] | System: human Topo I (Homo sapiens, UniProt P11387) | IC50: 7.37
